- System: MDA-MB-231 human breast adenocarcinoma cells
- Measurement Protocol: in vitro cytostatic (antiproliferative) activity, Alamar Blue (resazurin) assay, MDA-MB 231
- Assay type: cell-based
- Condition Set: MDA-MB-231, read-out: IC50 (µM) MDA-MB 231
IC50 values, listed per item
Measured Property: IC50 (µM)

{"Molecule": "CC1OC(Oc2c(-c3ccc(O)c(O)c3)oc3cc(O)cc(O)c3c2=O)C(O)C(O)C1O (centres unmarked) [quercetin-3-O-rhamnoside (106)]", "Value Operator": ">", "Numeric Result": 100}
{"Molecule": "COc1cccc2c1C(=O)c1c(O)c3c(c(O)c1C2=O)C[C@@](O)(C(C)=O)C[C@@H]3O[C@H]1C[C@H](N)[C@H](O)[C@H](C)O1 [Daunomycin, daunomycin, reference compound]", "Value Operator": "=", "Numeric Result": 0.7}

###

- Measurement Protocol: PAMPA-GI (parallel artificial membrane permeability assay, phosphatidylcholine membrane)
- Format: in vitro ADME
- Condition Set: PAMPA; read-out: logPe PAMPA-GI (n = 9) (converted)
Each entry below lists one item and its recorded Papp at 4 h, 100 µM value.
Measured Property: Papp at 4 h, 100 µM (×10⁻⁶ cm/s)

{"Compound": "CCOC(=O)c1cc(O)c(O)c(O)c1 [Compound 58, ethyl gallate]", "Unit Symbol": "×10⁻⁶ cm/s", "Numeric Result": 3.72}
{"Compound": "O=c1oc2c(O)c(O)cc3c(=O)oc4c(O)c(O)cc1c4c23 [Compound 143, ellagic acid]", "Unit Symbol": "×10⁻⁶ cm/s", "Numeric Result": 0.741}
{"Compound": "O=C1C=CC(=O)c2c(O)cccc21 [Compound 141, juglone]", "Unit Symbol": "×10⁻⁶ cm/s", "Numeric Result": 38.9}
